Test system: RPMI-8226 leukemia
Assay summary: NCI-60 one-dose screen, 48 h (100 = growth as untreated, 0 = no growth, -100 = all killed)
Run conditions: 10 µM unless noted
Description: Growth inhibition of the RPMI-8226 human tumor cell line is measured as a screen for anti-cancer activity. Cells are grown in 96 well plates and exposed to the test compound for 48 hours. Compounds are tested at a single concentration, which is 10^-5 M for most compounds. The reported endpoint is percent growth (GI% or GIPRCNT), where numbers from 0 - 100% represent growth inhibition, and numbers from -100% - 0 represent cell death. For example, a value of 40 represents 60% growth inhibition. […]
About 83,000 compounds went through this panel and 20% of them were active in at least one assay; those are over-represented in the sample as a whole. Active and inactive are the calls of the source. Rule for the calls: active = growth percent below 10; inactive = the rest.
Recorded metric: growth

{"columns": ["Compound", "Experimental target", "Endpoint result"],
 "data": [
  ["CC1(C)C(=O)/C(=C\\c2ccc(C(F)(F)F)cc2)C[C@]2(C)[C@H]3CC[C@@H]4[C@H]5[C@H](C(=O)/C=C/c6ccc(C(F)(F)F)cc6)CC[C@]5(CO)CC[C@@]4(C)[C@]3(C)CC[C@@H]12", "RPMI-8226 leukemia", "88.6% (inactive)"],
  ["COc1ccc(Nc2ncccc2C(=O)NCc2cn(Cc3cccc(Oc4ccccc4)c3)nn2)cc1", "RPMI-8226 leukemia", "55.4% (inactive)"],
  ["Nc1nc(=O)c2ccccc2s1", "RPMI-8226 leukemia", "94.8% (inactive)"],
  ["CCC(=O)OC1=CN2C(=NC(c3ccc(N)cc3)=CC2c2cc(OC)c(OC)c(OC)c2)S1 (centres undefined)", "RPMI-8226 leukemia", "17.9% (inactive)"]
]}

Attribution: PubChem BioAssay (NCI)
